Reference source: ChEMBL document CHEMBL1268872

For each of the molecules below, state its ΔTm.
targetUnderTest: Mitogen-activated protein kinase 14 (Homo sapiens, UniProt Q16539)
Sequence (Q16539 whole entry): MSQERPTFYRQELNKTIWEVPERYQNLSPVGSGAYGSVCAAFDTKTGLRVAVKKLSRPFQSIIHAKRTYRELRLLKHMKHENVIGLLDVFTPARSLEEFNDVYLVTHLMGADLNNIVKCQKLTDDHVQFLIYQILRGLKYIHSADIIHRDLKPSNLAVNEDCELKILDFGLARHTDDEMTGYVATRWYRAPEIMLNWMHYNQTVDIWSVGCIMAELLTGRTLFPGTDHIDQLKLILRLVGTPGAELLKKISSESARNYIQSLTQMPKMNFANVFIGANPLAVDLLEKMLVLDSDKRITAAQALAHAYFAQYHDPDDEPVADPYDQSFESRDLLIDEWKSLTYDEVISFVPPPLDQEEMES
measurementDescription: Binding affinity to phosphorylated p38alpha assessed as change in melting temperature
Quick note: unit goes after the number.

Reference set (5 entries):
- NC(=O)Cc1cccc(-n2nc(-c3ccccc3F)cc2NC(=O)Nc2cccc(Cl)c2Cl)c1: 7.1 °C
- CC(C)(C)c1cc(NC(=O)Nc2cccc(Cl)c2Cl)n(-c2cccc(CC(N)=O)c2)n1: 9.1 °C
- NC(=O)Cc1cccc(-n2nc(-c3ccccc3)cc2NC(=O)Nc2cccc(Cl)c2Cl)c1: 5.4 °C
- NC(=O)Cc1cccc(-n2nc(-c3ccsc3)cc2NC(=O)Nc2cccc(Cl)c2Cl)c1: 9.3 °C
- CC(C)(C)c1cc(NC(=O)Nc2cccc3ccccc23)n(-c2cccc(CC(N)=O)c2)n1: 8.6 °C

The recorded ΔTm for entry NC(=O)Cc1cccc(-n2nc(-c3cccs3)cc2NC(=O)Nc2cccc(Cl)c2Cl)c1 equals 8.5 °C
